sequences and their reported switch fluorescence ratio
# System: ATP;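 note: ATP exposure 15 min at 22 °C before imaging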
# assay-method-text: switch fluorescence ratio, 500 uM ATP over buffer (Cy3 cluster intensity, sum of 5 cycles each) (fold (ratio)); higher = stronger signal-on switching upon ATP binding; sequences stand for … in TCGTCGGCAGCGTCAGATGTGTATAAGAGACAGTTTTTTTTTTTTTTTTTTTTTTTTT…TC
# settings: aptamer strand: ATP DNA aptamer (quencher-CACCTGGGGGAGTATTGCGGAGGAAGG + anchor), 100 nM annealed; ATP concentration: 500 uM
reported-endpoint: switch fluorescence ratio

- sequence-input: "GTAAGGCGCA"
  reported-endpoint: "switch fluorescence ratio"
  endpoint-value: 0.989
- sequence-input: "CCTTGCGTTC"
  reported-endpoint: "switch fluorescence ratio"
  endpoint-value: 2.68
- sequence-input: "GGTATTAAGG"
  reported-endpoint: "switch fluorescence ratio"
  endpoint-value: 1.02
- sequence-input: "TACTCTTCAT"
  reported-endpoint: "switch fluorescence ratio"
  endpoint-value: 1.12
- sequence-input: "CTGATTGAGT"
  reported-endpoint: "switch fluorescence ratio"
  endpoint-value: 0.976
- sequence-input: "ATAAGTGGA"
  reported-endpoint: "switch fluorescence ratio"
  endpoint-value: 0.997
- sequence-input: "TTTGATCGCT"
  reported-endpoint: "switch fluorescence ratio"
  endpoint-value: 1.28
- sequence-input: "CCCCCGGGGT"
  reported-endpoint: "switch fluorescence ratio"
  endpoint-value: 1.83
- sequence-input: "AAAAATTTCG"
  reported-endpoint: "switch fluorescence ratio"
  endpoint-value: 1.05
- sequence-input: "CATTCTGACC"
  reported-endpoint: "switch fluorescence ratio"
  endpoint-value: 1.08
- sequence-input: "GGCAGATGAA"
  reported-endpoint: "switch fluorescence ratio"
  endpoint-value: 1.03
